# target of assay: Prostaglandin G/H synthase 1 (Mus musculus, UniProt P22437)
# Sequence (P22437 whole entry): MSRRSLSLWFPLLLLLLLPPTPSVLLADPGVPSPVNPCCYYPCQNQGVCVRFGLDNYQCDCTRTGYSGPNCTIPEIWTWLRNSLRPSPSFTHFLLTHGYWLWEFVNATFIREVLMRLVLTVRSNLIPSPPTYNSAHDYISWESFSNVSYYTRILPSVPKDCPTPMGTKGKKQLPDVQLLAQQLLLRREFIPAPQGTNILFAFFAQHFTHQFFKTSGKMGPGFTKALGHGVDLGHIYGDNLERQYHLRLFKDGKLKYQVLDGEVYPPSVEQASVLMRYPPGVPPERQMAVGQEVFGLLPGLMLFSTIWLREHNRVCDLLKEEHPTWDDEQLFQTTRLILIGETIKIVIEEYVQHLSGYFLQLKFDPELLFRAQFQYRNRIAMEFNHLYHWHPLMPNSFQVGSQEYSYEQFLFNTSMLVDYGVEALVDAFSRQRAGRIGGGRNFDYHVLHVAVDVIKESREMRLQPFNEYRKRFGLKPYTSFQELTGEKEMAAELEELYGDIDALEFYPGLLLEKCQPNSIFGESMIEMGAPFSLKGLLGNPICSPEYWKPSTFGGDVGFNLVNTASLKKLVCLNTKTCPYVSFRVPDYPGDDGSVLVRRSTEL
# test details: Inhibition of COX1 in C57BL/6 mouse peritoneal macrophages assessed as reduction in PGE2 formation pre-incubated for 2 hrs followed by arachidonic acid addition and measured after 10 mins by radio-immuno assay or enzyme-immunoassay
outcome measure: IC50 (µM)

CC(C)c1ccc(C2=C(c3ccc(S(C)(=O)=O)cc3)OC3(CCCC3)C2=O)cc1 = 24.4

(a) C[S+]([O-])c1ccc(C2=C(c3cccc(F)c3)C(=O)C(C)(C)O2)cc1 (centres undefined)
(b) C[S+]([O-])c1ccc(C2=C(c3ccc(F)cc3)C(=O)C(C)(C)O2)cc1 (centres undefined)
(c) CC(=O)c1cccc(C2=C(c3ccc(S(N)(=O)=O)cc3)OC(C)(C)C2=O)c1
Rank the items in ascending order with respect to IC50. In plain terms: list the labels in the order you were asked to.
c, a, b
(c: 8.98 µM, a: 29 µM, b: 87.1 µM)

---

# target of assay: Prostaglandin G/H synthase 2 (Mus musculus, UniProt Q05769)
# Sequence (Q05769 whole entry): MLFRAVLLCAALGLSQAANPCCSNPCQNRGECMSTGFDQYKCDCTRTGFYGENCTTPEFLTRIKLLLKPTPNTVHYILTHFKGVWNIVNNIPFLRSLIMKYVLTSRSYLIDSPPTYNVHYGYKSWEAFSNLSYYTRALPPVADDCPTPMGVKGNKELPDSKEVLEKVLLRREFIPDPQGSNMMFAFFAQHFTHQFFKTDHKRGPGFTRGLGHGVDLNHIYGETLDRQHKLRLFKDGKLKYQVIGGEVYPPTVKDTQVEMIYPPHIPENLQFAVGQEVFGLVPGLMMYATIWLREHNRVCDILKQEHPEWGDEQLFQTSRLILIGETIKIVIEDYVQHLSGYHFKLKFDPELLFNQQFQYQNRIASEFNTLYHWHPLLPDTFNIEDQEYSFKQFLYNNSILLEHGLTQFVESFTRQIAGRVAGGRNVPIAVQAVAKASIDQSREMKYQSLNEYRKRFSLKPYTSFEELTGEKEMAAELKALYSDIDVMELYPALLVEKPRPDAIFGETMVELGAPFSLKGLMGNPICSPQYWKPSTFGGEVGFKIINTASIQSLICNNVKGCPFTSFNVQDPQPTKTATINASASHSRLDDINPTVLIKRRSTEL
# test details: Inhibition of COX2 in C57BL/6 mouse peritoneal macrophages assessed as reduction in PGE2 formation pre-incubated for 2 hrs before LPS stimulation for 16 hrs followed by arachidonic acid addition and measured after 10 mins in presence of 500 uM aspirin by radio-immuno assay or enzyme-immunoassay
outcome measure: IC50 (µM)

(a) CC(=O)c1cccc(C2=C(c3ccc(S(N)(=O)=O)cc3)OC(C)(C)C2=O)c1
(b) C[S+]([O-])c1ccc(C2=C(c3ccc(F)cc3)C(=O)C(C)(C)O2)cc1 (configuration not stated)
Choose between a and b : whose measured IC50 value is numerically larger? Write the label of whichever entry you select.
b
(b: 8.71 µM, a: 0.0337 µM)

From: ChEMBL document CHEMBL3882732
